Cited source for all entries: PubChem BioAssay (NCI)

Test system: HCT-15 colon
Experiment: NCI-60 one-dose screen, 48 h (100 = growth as untreated, 0 = no growth, -100 = all killed)
Conditions: 10 µM
Description: Growth inhibition of the HCT-15 human tumor cell line is measured as a screen for anti-cancer activity. Cells are grown in 96 well plates and exposed to the test compound for 48 hours. Compounds are tested at a single concentration, which is 10^-5 M for most compounds. The reported endpoint is percent growth (GI% or GIPRCNT), where numbers from 0 - 100% represent growth inhibition, and numbers from -100% - 0 represent cell death. For example, a value of 40 represents 60% growth inhibition. […]
Compounds without any hit were thinned out: in the full panel of roughly 83,000, 20% have a hit. Active and inactive are the calls of the source. How the source made its calls: active means growth percent below 10; inactive means the rest.
outcome_measure: growth

Some solved cases for reference:
>>> result("N#C[Se]CCCNS(=O)(=O)C1CC2C=CC1C2 (stereo not given)")
"-1.27% (active)"
>>> result("C[C@]12CCc3sc(-c4ccc(Cl)cc4)nc3C1=CC[C@@H]1[C@@H]2CC[C@]2(C)C(=O)CC[C@@H]12")
"34.6% (inactive)"
>>> result("C=CCN1C(=O)C(CC)(CCC(C)C)C(=O)NC1=S (stereo not given)")
"105% (inactive)"
>>> result("ClCCN(CCCl)c1nc(Cl)c(C2CC(c3ccc(Cl)cc3)=NN2c2cc(Cl)cc(Cl)c2)s1 (stereo not given)")
"105% (inactive)"

Let us examine a further case.
# input What measured growth goes with Oc1ccc(Br)cc1CN1CCN(Cc2ccc(Cl)cc2)CC1 ?
# output 59.7% (inactive)
